- study target: feline FcRn complex (FcRn-α subunit and β-microglobulin) (feline)
- experiment: SPR (Biacore), FcRn on SA chip, pH 7.4
property name: Kd (nM)
# unit: nM | format: bare number

feline IgG1a mutant ID No. 360: S252Y, S434R, D312H (antibody, part only; not given: Variable domains, not shown: another chain or arm of the molecule) constant: ASTTAPSVFPLAPSCGTTSGATVALACLVLGYFPEPVTVSWNSGALTSGVHTFPAVLQASGLYSLSSMVTVPSSRWLSDTFTCNVAHPPSNTKVDKTVRKTDHPPGPKPCDCPKCPPPEMLGGPSIFIFPPKPKDTLYISRTPEVTCLVVDLGPDDSDVQITWFVDNTQVYTAKTSPREEQFNSTYRVVSVLPILHQHWLKGKEFKCKVNSKSLPSPIERTISKAKGQPHEPQVYVLPPAQEELSRNKVSVTCLIKSFHPPDIAVEWEITGQPEPENNYRTTPPQLDSDGTYFVYSKLSVDRSHWQRGNTYTCSVSHEALHRHHTQKSLTQSPGK: 43.1

Consider the record given below.
Requested field: Kd. Item: feline IgG1a mutant ID No. 325: S428Y, D312P, S434Y, D401R, T403R (antibody, part only; not given: Variable domains, not shown: another chain or arm of the molecule) constant: ASTTAPSVFPLAPSCGTTSGATVALACLVLGYFPEPVTVSWNSGALTSGVHTFPAVLQASGLYSLSSMVTVPSSRWLSDTFTCNVAHPPSNTKVDKTVRKTDHPPGPKPCDCPKCPPPEMLGGPSIFIFPPKPKDTLSISRTPEVTCLVVDLGPDDSDVQITWFVDNTQVYTAKTSPREEQFNSTYRVVSVLPILHQPWLKGKEFKCKVNSKSLPSPIERTISKAKGQPHEPQVYVLPPAQEELSRNKVSVTCLIKSFHPPDIAVEWEITGQPEPENNYRTTPPQLDSRGRYFVYSKLSVDRSHWQRGNTYTCSVYHEALHYHHTQKSLTQSPGK
11.1
